# TEST_METHOD_NOTES: Tissue distribution of 18F imaging agents in rats
# Format: in vivo, Male Sprague Dawley rats
# EXPERIMENTAL_CONDITIONS: rat, iv tail vein ~15 μCi, 60 min post injection, ± SEM
In this section, each of the compounds is paired with its reported Muscle, imaging agent distribution at 60 min.
OBSERVABLE: Muscle, imaging agent distribution at 60 min (% ID/g)

{"columns": ["COMPOUND", "QUANTITATIVE_RESULT"],
 "data": [
  ["Cc1c(OCc2ccc(COCCF)cc2)cnn(C(C)(C)C)c1=O [Example 67I]", 0.35],
  ["[2H]C([2H])(OCCF)c1ccc(COc2cnn(C(C)(C)C)c(=O)c2Cl)cc1 [Example 67E]", 0.69],
  ["CC(C)(C)n1ncc(OCc2ccc(-c3cnc(F)nc3)cc2)c(Cl)c1=O [Example 67L]", 0.20],
  ["CC(OCCF)c1ccc(COc2cnn(C(C)(C)C)c(=O)c2Cl)cc1 (stereo not drawn) [Example 67G]", 0.33],
  ["CC(C)(C)n1ncc(OCc2ccc(C#CCCF)cc2)c(Cl)c1=O [Example 67K]", 0.39],
  ["CC(C)(C)n1ncc(OCc2cccc(COCCF)c2)c(Cl)c1=O [Example 67A]", 0.18],
  ["CC(C)(C)n1ncc(OCc2ccc(OCCCF)c(Cl)c2)c(Cl)c1=O [Example 67C]", 0.26],
  ["CC(C)(C)n1ncc(OCc2ccc(C(=O)OCCF)cc2)c(Cl)c1=O [Example 67J]", 0.31],
  ["CC(C)n1ncc(OCc2ccc(COCCF)cc2)c(Cl)c1=O [Example 67H]", 0.31]
]}

====

In this section, each of the molecules is paired with its reported Liver, imaging agent distribution at 15 min.
# TEST_METHOD_NOTES: Tissue distribution of 18F imaging agents in rats
# Type: in vivo, Male Sprague Dawley rats
# EXPERIMENTAL_CONDITIONS: rat, iv tail vein ~15 μCi, 15 min post injection, ± SEM
OBSERVABLE: Liver, imaging agent distribution at 15 min (% ID/g)

{"columns": ["MOLECULE", "QUANTITATIVE_RESULT"],
 "data": [
  ["CC(C)(C)n1ncc(CCc2ccc(COCCF)cc2)c(Cl)c1=O [Example 67M]", 0.96],
  ["CC(C)(C)n1ncc(OCc2ccc(OCCOCCF)cc2)c(Cl)c1=O [Example 67B]", 2.33],
  ["CC(C)(C)n1ncc(OCc2cccc(OCCF)c2)c(Cl)c1=O [Example 67F]", 0.40],
  ["CC(C)(C)n1ncc(OCc2ccc(-c3cnc(F)nc3)cc2)c(Cl)c1=O [Example 67L]", 1.71],
  ["CC(C)(C)n1ncc(OCc2ccc([Si](F)(C(C)(C)C)C(C)(C)C)cc2)c(Cl)c1=O [Example 67N]", 4.91],
  ["CC(C)(C)n1ncc(OCc2cccc(COCCF)c2)c(Cl)c1=O [Example 67A]", 0.08],
  ["[2H]C([2H])(OCCF)c1ccc(COc2cnn(C(C)(C)C)c(=O)c2Cl)cc1 [Example 67E]", 0.66],
  ["CC(C)(C)n1ncc(OCc2ccc(C(=O)OCCF)cc2)c(Cl)c1=O [Example 67J]", 0.32],
  ["Cc1c(OCc2ccc(COCCF)cc2)cnn(C(C)(C)C)c1=O [Example 67I]", 0.33]
]}
